metric.name: melting point

Query block: What melting point value was documented for this compound, NC(=O)CCn1cc(-c2c[nH]c3cc(F)ccc23)cn1 [Example 7] ?
Result block: 173.3 to 175 °C

Query block: What melting point value was documented for this compound, O=C(O)CCC(=O)N1CCC(n2cc(-c3c[nH]c4cc(F)ccc34)cn2)CC1 [Example 80] ?
Result block: 226 to 228 °C

Query block: What melting point value was documented for this compound, CN1CCC(n2cc(-c3c[nH]c4cc(F)ccc34)cn2)CC1 [Example 91] ?
Result block: 222.8 to 223.7 °C

Query block: What melting point value was documented for this compound, CS(=O)(=O)CCn1cc(-c2c[nH]c3cc(F)c(F)cc23)cn1 [Example 32] ?
Result block: 170.6 to 171.9 °C

Query block: What melting point value was documented for this compound, Fc1ccc2c(-c3cnn(CC4CCOCC4)c3)c[nH]c2c1 [Example 58] ?
Result block: 138.9 to 139.6 °C

Query block: What melting point value was documented for this compound, CC(C)C(=O)N1CCC(n2cc(-c3c[nH]c4cc(F)ccc34)cn2)CC1 [Example 86] ?
Result block: 210.2 to 211 °C
